# Test system: benzodiazepine receptor
# experiment_notes: in vivo displacement of 3H-flunitrazepam binding on the benzodiazepine receptor in live brain
# setup_conditions: mice, normally i.p.; 3H-flunitrazepam i.v. after 15 minutes; 50% reduction of specific binding in forebrain
Provide the reported ED50 in vivo of each item.
Just the number in mg/kg, nothing appended.

Please report the measured ED50 in vivo for CCCOC(C)c1cccc2[nH]c3cnc(C(=O)OCC)c(C)c3c12 (stereo not drawn)
0.6

Fill in reported ED50 in vivo for this entry: CCOCc1cccc2[nH]c3cnc(C(=O)OCC)c(C)c3c12 [5-CH2 OC2 H5, CH3, COOC2 H5, reference compound]
1.0

Report measured ED50 in vivo; entry is CCOC(C)c1cccc2[nH]c3cnc(-c4nc(CC)no4)c(C)c3c12 (stereo not drawn) [5-CH(CH3)OC2 H5, CH3, drawing 6]
0.09

====

# tgt: benzodiazepine receptors
# experiment_notes: displacement of 3H-flunitrazepam from benzodiazepine receptors in vitro
# Assay type: binding
# setup_conditions: 3H-flunitrazepam 1.0 nM, 0° C., rat forebrain membranes, pH 7.1
readout_type: IC50 in vitro (ng/mL)
The figure you give is taken to be in ng/mL; do not add the unit.

Give reported IC50 in vitro value for CCOC(=O)c1ncc2[nH]c3ccc(C(C)OCC(F)(F)F)cc3c2c1C (stereo not drawn)
0.8

For the molecule CCOC(C)c1ccc2[nH]c3cnc(-c4nc(CC)no4)c(CC)c3c2c1 (stereo not drawn) [6-CH(CH3)OC2 H5, C2 H5, drawing 9] , give its reported IC50 in vitro.
0.7

Using known records, supply IC50 in vitro for CCOC(=O)c1ncc2[nH]c3cccc(COC)c3c2c1C [5-CH2 OCH3, CH3, COOC2 H5, reference compound]
0.45
